Cited source for all entries: PubChem BioAssay (NCI)

assay method text: NCI Yeast Anticancer Drug Screen. Data for the sgs1 strain (AID 173);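 also: 0% = growth of vehicle-only control cultures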
applied conditions: S. cerevisiae sgs1 mutant, at 11.0 µM, stronger effect = higher value
The panel holds about 79,000 compounds, 15% with a hit somewhere; the sample as a whole holds those more often.
List of growth inhibition values.
State just the number; it will be interpreted in %.

CS(=O)(=O)SCc1ccc([N+](=O)[O-])cc1: 97

Reported growth inhibition ( CNC(=O)OCc1c(COC(=O)NC)c(-c2ccc(Cl)cc2)n2c1CCC2 ) = -41

In plain terms, O=C(O)C1CC(c2ccccc2)=NN1c1ccccc1 (stereo not drawn) has a documented growth inhibition of -16

For this compound ( C[CH2][Sn]([CH2]C)([O]C(=O)C(N)Cc1ccccc1)[O]C(=O)C(N)Cc1ccccc1 (stereo not drawn) ), measured growth inhibition is 4

Record CC1CC[C@]2(C(=O)O)CCC3(C)C(=CC(=O)C4[C@@]5(C)CCC(=O)C(C)(C)C5CC[C@]43C)[C@@H]2[C@H]1C (stereo partly drawn) . Reported growth inhibition: 91

Lab note: measured growth inhibition of CC1(C)CC(=O)C(/C=N/c2nc(-c3ccccc3)cs2)=C(O)C1 was 26

Record summary for COc1cc([C@@H]2c3cc4c(cc3[C@@H](Nc3ccc(NC(=O)c5cc([N+](=O)[O-])cn5C)cc3)[C@H]3COC(=O)[C@H]23)OCO4)cc(OC)c1O : reported growth inhibition = 30

Summary for this compound, O=C(NNc1ccccc1)c1ccc(Cl)c(Cl)c1 : growth inhibition is -1

Recorded growth inhibition (compound Nc1nc2ccc(NCc3ccc(C(=O)NC(CCC(=O)O)C(=O)O)cc3)cc2c(=O)[nH]1 (stereo not drawn) ): 6
